# Tested on: CYPs
# test-name: CYPs metabolic stability assay in HLM (human liver microsomes)
# Assay type: in vitro ADME
# condition-set: HLM 1 mg/ml protein, absence of NADPH, compound 5 μM, 60 min, 37° C.
# Method: Stability of the test compounds was performed in HLM (human liver microsomes) in the presence and in the absence of NADPH. The stability was measured using the incubation mixture (100 μl total volume) contained 1 mg/ml total protein, MgCl2 5 mM and 50 mM K-phosphate buffer. Samples were incubated in the presence and in the absence of NADPH 1 mM. Reactions were pre-incubated 5 min and the reaction initiated with the compound under test (at a concentration of 5 μM). […]
Counter-ions that a name gives are not always drawn.
assay-endpoint: Control (% remain)
Response body: numeric value in % remain, unit text excluded.

Field: Control (% remain) (CYPs). Entry: COc1cccc(CN2CCC(N(C)C(=O)n3cnc(-c4cccc(OS(N)(=O)=O)c4)c3)CC2)c1.Cl 100.0

Look up Control (% remain) with CYPs for this compound: CN(C(=O)n1cnc(-c2cccc(NS(N)(=O)=O)c2)c1)C1CCN(Cc2ccccc2)CC1 [Example 2, hydrochloride] 98.3

Field: Control (% remain) (CYPs). Entry: COc1cccc(CN2CCC(N(C)C(=O)n3cnc(-c4cccc(NS(N)(=O)=O)c4)c3)CC2)c1 [Example 3, hydrochloride] 103.5

* * *

# System: CYPs
# test-name: CYPs metabolic stability assay in HLM (human liver microsomes)
# Assay type: in vitro ADME
# condition-set: HLM 1 mg/ml protein, with NADPH 1 mM, compound 5 μM, 60 min, 37° C.
Counter-ions that a name gives are not always drawn.
Please go through the items and note down their CYP+ (% remain).
// note: answer is a bare numeric in % remain

CYPs / CYP+ (% remain) / CN(C(=O)n1cnc(-c2cccc(OS(N)(=O)=O)c2)c1)C1CCN(Cc2ccc3c(c2)OCO3)CC1 [Example 30, hydrochloride] : value? 64.8

Item CN(C(=O)n1cnc(-c2cccc(C(N)=O)c2)c1)C1CCN(c2ccc(O)cc2)CC1 [Example 35, hydrochloride] with CYPs - CYP+ (% remain)? 81.0

Quick check: CYP+ (% remain) on CYPs, item CN(C(=O)n1cnc(-c2cccc(OS(N)(=O)=O)c2)c1)C1CCN(c2ccccc2)CC1 [Example 6, hydrochloride] ? 12.0

Please tell me: CYP+ (% remain) of CN(C(=O)n1cnc(-c2cccc(NC(N)=O)c2)c1)C1CCN(Cc2ccccc2)CC1 [Example 16, hydrochloride] , system CYPs? 17.0

# query: CYP+ (% remain) | item COc1ccc(CN2CCC(N(C)C(=O)n3cnc(-c4cccc(NS(C)(=O)=O)c4)c3)CC2)cc1OC [Example 5, hydrochloride] | system: CYPs 77.3

Can you look up CYP+ (% remain) on CYPs for COc1cccc(CN2CCC(N(C)C(=O)n3cnc(-c4cccc(NC(N)=O)c4)c3)CC2)c1.Cl ? 21.4

So what CYP+ (% remain) did COc1ccccc1N1CCC(N(C)C(=O)n2cnc(-c3cccc(C(N)=O)c3)c2)CC1 [Example 34, hydrochloride] get with CYPs? 9.1

* * *

# experimental-system: FAAH (Mus musculus)
# Sequence (O08914 1-579): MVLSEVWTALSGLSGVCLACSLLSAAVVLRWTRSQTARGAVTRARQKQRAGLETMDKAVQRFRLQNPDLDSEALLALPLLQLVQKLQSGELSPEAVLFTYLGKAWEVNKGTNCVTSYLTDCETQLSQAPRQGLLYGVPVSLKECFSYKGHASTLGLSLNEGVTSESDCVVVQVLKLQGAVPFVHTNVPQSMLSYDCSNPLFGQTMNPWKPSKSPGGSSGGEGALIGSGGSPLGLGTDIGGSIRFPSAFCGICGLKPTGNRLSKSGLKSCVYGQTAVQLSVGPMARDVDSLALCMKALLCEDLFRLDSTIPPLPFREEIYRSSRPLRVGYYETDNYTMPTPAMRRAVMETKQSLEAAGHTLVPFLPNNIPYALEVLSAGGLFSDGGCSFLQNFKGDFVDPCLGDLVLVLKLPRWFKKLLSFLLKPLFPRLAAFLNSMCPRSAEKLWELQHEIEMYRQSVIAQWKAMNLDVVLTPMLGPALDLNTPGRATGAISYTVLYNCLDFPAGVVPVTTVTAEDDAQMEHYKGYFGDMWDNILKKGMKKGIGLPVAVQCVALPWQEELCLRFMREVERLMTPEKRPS
# test-name: In vitro/ex vivo FAAH activity determination in brain after intra-tracheal instillation
# Design: Liver and brain fragments were removed and processed for enzymatic activity determination; from tissue; species or system male NMRI mice
# condition-set: remaining enzymatic activity vs controls, 1 mg/kg intra-tracheal instillation, sacrificed after 8 h
Counter-ions that a name gives are not always drawn.
Give FAAH Activity - Brain itc (% C) for every item shown.
Your answer should be a plain number; it is taken to be in % C.

# get_value(readout='FAAH Activity - Brain itc (% C)', item= COc1cccc(CN2CCC(N(C)C(=O)n3cnc(-c4cccc(NS(N)(=O)=O)c4)c3)CC2)c1 [Example 3, hydrochloride] ) 96.0

I have this molecule here, CN(C(=O)n1cnc(-c2cccc(NS(N)(=O)=O)c2)c1)C1CCN(Cc2ccccc2)CC1 [Example 2, hydrochloride] , and I need its recorded FAAH Activity - Brain itc (% C). 86.8

Which FAAH Activity - Brain itc (% C) reading was recorded for the molecule COc1ccc(CN2CCC(N(C)C(=O)n3cnc(-c4cccc(C(N)=O)c4)c3)CC2)cc1 [Example 33, hydrochloride] ? 102

Please report the recorded FAAH Activity - Brain itc (% C) for COc1ccc(CN2CCC(N(C)C(=O)n3cnc(-c4cccc(NC(N)=O)c4)c3)CC2)cc1OC [Example 26, hydrochloride] . 124.3

Quick one: FAAH Activity - Brain itc (% C) of CN(C(=O)n1cnc(-c2cccc(NC(N)=O)c2)c1)C1CCN(Cc2ccccc2)CC1.O=C(O)/C=C\C(=O)O ? 92.4

Which FAAH Activity - Brain itc (% C) is listed for CN(C(=O)n1cnc(-c2cccc(C(N)=O)c2)c1)C1CCN(c2ccc(O)cc2)CC1 [Example 35, hydrochloride] ? 96.6

Need FAAH Activity - Brain itc (% C), item CN(C(=O)n1cnc(-c2cccc(NS(C)(=O)=O)c2)c1)C1CCN(Cc2ccccc2)CC1 [Example 1, hydrochloride] 79.0

* * *

# experimental-system: FAAH (Mus musculus)
# Sequence (O08914 1-579): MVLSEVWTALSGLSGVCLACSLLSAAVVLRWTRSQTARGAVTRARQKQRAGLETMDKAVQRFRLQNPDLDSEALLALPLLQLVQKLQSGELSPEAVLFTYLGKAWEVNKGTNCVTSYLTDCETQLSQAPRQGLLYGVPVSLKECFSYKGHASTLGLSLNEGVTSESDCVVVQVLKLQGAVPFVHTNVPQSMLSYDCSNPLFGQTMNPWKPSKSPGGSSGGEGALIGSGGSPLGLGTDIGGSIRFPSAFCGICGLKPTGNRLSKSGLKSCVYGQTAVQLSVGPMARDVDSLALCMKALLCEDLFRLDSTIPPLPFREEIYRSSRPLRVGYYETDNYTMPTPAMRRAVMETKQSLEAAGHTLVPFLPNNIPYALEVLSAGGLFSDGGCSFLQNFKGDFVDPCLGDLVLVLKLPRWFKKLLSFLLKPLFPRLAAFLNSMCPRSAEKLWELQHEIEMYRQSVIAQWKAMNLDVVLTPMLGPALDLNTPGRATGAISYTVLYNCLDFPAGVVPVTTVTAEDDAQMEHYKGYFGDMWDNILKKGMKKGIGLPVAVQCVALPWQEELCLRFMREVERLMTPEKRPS
# test-name: In vitro/ex vivo FAAH activity determination in liver after intra-tracheal instillation
# Set-up: Liver and brain fragments were removed and processed for enzymatic activity determination; from tissue; host or cells: mouse liver fragment homogenate; species or system male NMRI mice
# condition-set: remaining enzymatic activity vs controls, 1 mg/kg intra-tracheal instillation, sacrificed after 8 h
Structures can show the parent of a compound that is named as a salt.
Kindly supply the reported FAAH Activity - Liver itc (% C) values for the records listed here.
Value expressed in % C; do not type the unit.

Look up FAAH Activity - Liver itc (% C): COc1cccc(CN2CCC(N(C)C(=O)n3cnc(-c4cccc(NS(C)(=O)=O)c4)c3)CC2)c1 [Example 4, hydrochloride] 7.2

Value lookup for FAAH Activity - Liver itc (% C); key = COc1ccc(CN2CCC(N(C)C(=O)n3cnc(-c4cccc(C(N)=O)c4)c3)CC2)cc1 [Example 33, hydrochloride] 3.4

Can you share its FAAH Activity - Liver itc (% C)? I mean this molecule: CN(C(=O)n1cnc(-c2cccc(NS(C)(=O)=O)c2)c1)C1CCN(Cc2ccccc2)CC1 [Example 1, hydrochloride] 3.2

Any idea what FAAH Activity - Liver itc (% C) was measured for COc1ccccc1CN1CCC(N(C)C(=O)n2cnc(-c3cccc(C(N)=O)c3)c2)CC1 [Example 38, hydrochloride] ? 6.0

Would you kindly share the measured FAAH Activity - Liver itc (% C) for COc1cccc(CN2CCC(N(C)C(=O)n3cnc(-c4ccc(OS(N)(=O)=O)cc4)c3)CC2)c1 [Example 14, hydrochloride] ? 6.0

Return reported FAAH Activity - Liver itc (% C); argument: CN(C(=O)n1cnc(-c2cccc(OS(N)(=O)=O)c2)c1)C1CCN(Cc2ccc3c(c2)OCO3)CC1 [Example 30, hydrochloride] 13.7

Which FAAH Activity - Liver itc (% C) value belongs to COc1cccc(CN2CCC(N(C)C(=O)n3cnc(-c4cccc(OS(N)(=O)=O)c4)c3)CC2)c1.Cl ? 4.4

I would be grateful if you could share the reported FAAH Activity - Liver itc (% C) for CN(C(=O)n1cnc(-c2cccc(OS(N)(=O)=O)c2)c1)C1CCN(c2ccc(Br)c(O)c2)CC1 [Example 29, hydrochloride] . 10.5

May I ask what FAAH Activity - Liver itc (% C) has been recorded for CN(C(=O)n1cnc(-c2cccc(NC(N)=O)c2)c1)C1CCN(c2ccc(O)cc2)CC1 [Example 25, hydrochloride] ? 9.0

Need FAAH Activity - Liver itc (% C), item COc1ccc(CN2CCC(N(C)C(=O)n3cnc(-c4cccc(NS(C)(=O)=O)c4)c3)CC2)cc1OC [Example 5, hydrochloride] 5.7

Bench note: what FAAH Activity - Liver itc (% C) did CN(C(=O)n1cnc(-c2cccc(NS(C)(=O)=O)c2)c1)C1CCN(c2ccc(O)cc2)CC1 [Example 24, hydrochloride] show? 5.7

Please give the measured FAAH Activity - Liver itc (% C) for this molecule: CN(C(=O)n1cnc(-c2cccc(NC(N)=O)c2)c1)C1CCN(Cc2ccc3c(c2)OCO3)CC1.Cl 3.4

Name the recorded FAAH Activity - Liver itc (% C) for COc1cccc(CN2CCC(N(C)C(=O)n3cnc(-c4cccc(NC(N)=O)c4)c3)CC2)c1.Cl . 4.2

Which FAAH Activity - Liver itc (% C) is reported for this molecule? CN(C(=O)n1cnc(-c2cccc(NS(N)(=O)=O)c2)c1)C1CCN(Cc2ccccc2)CC1 [Example 2, hydrochloride] 5.1

All figures here come from patent US20160166560A1.
